Each recorded value in this set is attributed to the RNAGym collection of RNA variant scans (doi:10.1126/science.aae0568).

B1: tRNA (parent)
chain: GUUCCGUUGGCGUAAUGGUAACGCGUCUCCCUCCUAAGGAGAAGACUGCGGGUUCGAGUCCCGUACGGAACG

Variants of: B1
Experiment: yeast fitness relative to wild type (ratio to wild type); higher = fitter; tRNA-Arg(CCU), competitive growth, 37 C, YPD
This sample holds only a part of the variants without activity.
Assay Readout: yeast fitness

>>> measured_result("U8G G52A G67C")
0.521
>>> measured_result("C33G A42C C49G G58C C62G")
0.513
>>> measured_result("C5G A14C C29A C31G U54A A70U")
0.545
>>> measured_result("C22U C31A")
0.762
>>> measured_result("G25C G52A")
0.748
>>> measured_result("U7A A21G U28A C29U G58A")
0.598
>>> measured_result("C11A C34A G52C")
0.541
>>> measured_result("C4A C30U A40G")
0.542
>>> measured_result("G41A A45G G56A")
0.582
>>> measured_result("G10A C30U G50A")
0.529
>>> measured_result("A42G C49G")
0.767
>>> measured_result("G25A C29G")
0.721
>>> measured_result("U19A G48A A69U")
0.966
>>> measured_result("C4A C11A U13C")
0.605
>>> measured_result("G10A C22U G56C")
0.566
>>> measured_result("C4U C11A A42G G48C A65U")
0.555
>>> measured_result("C22A C30A")
0.686
>>> measured_result("A14C C24U")
0.666
>>> measured_result("G25A C49U U59G")
0.54
>>> measured_result("U3A C4G")
0.792
>>> measured_result("C27U U28C C62U")
0.625
>>> measured_result("C5A C30A U64C")
0.547
>>> measured_result("C33U G56A G58C")
0.589
>>> measured_result("G25A A57C")
0.697
>>> measured_result("C22U G41C")
0.698
>>> measured_result("C5A C33A")
0.67
>>> measured_result("C4U C27U")
1.02
>>> measured_result("U3C A40U G44C")
0.625
